- measurementProtocol: Adsorption to aluminum hydroxide, LC-MS/MS of supernatant
- experimentalParameters: 10 mM histidine buffer pH 6.8; final compound concentration 0.1 mg/mL; 37° C. for 5 hours; 100% minus % unbound
measuredProperty: % bound to alum (%)
Use % as the unit, but write only the number.

In: If you can, please state the reported % bound to alum value of Cc1cc(OCCOCCOCCC(F)(F)P(=O)(O)O)ccc1CCc1cnc2c(N)nc3cc(CCC(=O)O)ccc3c2c1 [Compound 17] .
Out: 96.2

In: And the next one, Cc1cc(OCCOCCOCCP(=O)(O)O)ccc1CCc1cnc2c(N)nc3cc(CCC(=O)O)ccc3c2c1 [Compound 20] ?
Out: 97.0

In: And the next one, Cc1cc(OCCCC(F)(F)P(=O)(O)O)ccc1CCc1cnc2c(N)nc3cc(CCC(=O)O)ccc3c2c1 [Compound 16] ?
Out: 94.5

In: And the next one, Cc1ccc2c(c1)nc(N)c1ncc(CCc3ccc(OCCOCCOCCC(F)(F)P(=O)(O)O)cc3C)cc12 [Compound 6] ?
Out: 98.2
